# key: entry, value: MIC
test system: Staphylococcus aureus; test: Antibacterial activity against Staphylococcus aureus ATCC 25923 assessed as reduction in bacterial growth incubated for 18 to 24 hrs by broth microdilution method; assay type: functional
Measured Metric: MIC (µg/mL)

>  <Smiles Code>
CN(C)c1ccc2c(CC(=O)NCc3cn(CCCN4CCN(c5cc6c(cc5F)c(=O)c(C(=O)O)cn6C5CC5)CC4)nn3)cc(=O)oc2c1

>  <Unit Abbreviation>
µg/mL

>  <Observed Value>
16

$$$$
>  <Smiles Code>
[N-]=[N+]=NCCCN1CCN(c2cc3c(cc2F)c(=O)c(C(=O)O)cn3C2CC2)CC1

>  <Unit Abbreviation>
µg/mL

>  <Observed Value>
0.25

$$$$

* * *

test system: Enterococcus faecium; assay: Antibacterial activity against Enterococcus faecium ATCC 35667 assessed as reduction in bacterial growth incubated for 18 to 24 hrs by broth microdilution method; assay type: functional
# key: entry, value: MIC
Measured Metric: MIC

>  <Smiles Code>
O=C(O)c1cn(C2CC2)c2cc(N3CCN(CCCn4cc(CNc5ccc([N+](=O)[O-])c6nonc56)nn4)CC3)c(F)cc2c1=O

>  <Observed Value>
32 µg/mL

$$$$
>  <Smiles Code>
CN(C)c1ccc2c(CC(=O)NCc3cn(CCCN4CCN(c5cc6c(cc5F)c(=O)c(C(=O)O)cn6C5CC5)CC4)nn3)cc(=O)oc2c1

>  <Observed Value>
32 to 64 µg/mL

$$$$
>  <Smiles Code>
[N-]=[N+]=NCCCN1CCN(c2cc3c(cc2F)c(=O)c(C(=O)O)cn3C2CC2)CC1

>  <Observed Value>
16 to 64 µg/mL

$$$$
>  <Smiles Code>
O=C(O)c1cn(C2CC2)c2cc(N3CCNCC3)c(F)cc2c1=O

>  <Observed Value>
1 to 8 µg/mL

$$$$
